# assay-target: Glucocorticoid receptor (Homo sapiens) (UniProt P04150)
# Sequence (P04150 whole entry, looked up): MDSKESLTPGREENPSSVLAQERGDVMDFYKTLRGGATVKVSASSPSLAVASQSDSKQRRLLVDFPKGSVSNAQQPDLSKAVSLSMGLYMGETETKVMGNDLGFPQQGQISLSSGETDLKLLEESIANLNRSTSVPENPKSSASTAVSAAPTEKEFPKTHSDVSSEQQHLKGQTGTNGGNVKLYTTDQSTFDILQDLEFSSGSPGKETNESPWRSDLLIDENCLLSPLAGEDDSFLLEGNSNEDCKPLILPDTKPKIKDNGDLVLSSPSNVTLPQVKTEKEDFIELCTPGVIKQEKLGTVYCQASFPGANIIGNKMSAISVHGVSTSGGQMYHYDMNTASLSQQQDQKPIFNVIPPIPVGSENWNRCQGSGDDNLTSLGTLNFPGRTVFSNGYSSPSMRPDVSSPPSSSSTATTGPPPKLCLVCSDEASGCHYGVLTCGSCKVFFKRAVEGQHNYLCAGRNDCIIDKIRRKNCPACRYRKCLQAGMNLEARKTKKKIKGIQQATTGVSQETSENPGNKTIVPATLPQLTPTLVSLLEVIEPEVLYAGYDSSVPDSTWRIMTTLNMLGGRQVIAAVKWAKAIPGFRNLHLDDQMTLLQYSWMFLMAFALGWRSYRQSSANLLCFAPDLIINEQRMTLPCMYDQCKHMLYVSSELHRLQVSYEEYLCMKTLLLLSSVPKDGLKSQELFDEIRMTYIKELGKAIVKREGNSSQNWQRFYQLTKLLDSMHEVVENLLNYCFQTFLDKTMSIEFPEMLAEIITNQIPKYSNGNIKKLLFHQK
# assay-name: GR-GFP Redistribution (AID 450); also: potency is read from the fitted curve at half-maximal effect
# experimental-setup: U2OS GR-GFP nuclear translocation, laser cytometry, 2 h
The source made the active and inactive calls.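 The calls were made as follows: active = compounds whose dose series gives a full or clear partial fitted curve of increased nuclear translocation; inconclusive = weak partial curve or effect only at the top dose; inactive = no dose-dependent translocation response.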
endpoint: Potency

> print(dat)
                               sample.smiles  endpoint        recorded.value
 1  COCCn1c(=O)c(-c2ccccc2)nc2cnc(OCc3ccccc3)nc21   Potency  > 9.22 µM (inactive)
 2        COc1ccccc1CNc1ncncc1-c1cccc(C#N)c1   Potency    > 46 µM (inactive)
 3         N#Cc1cccc(-c2cc(NCc3cccs3)ncn2)c1   Potency    > 46 µM (inactive)
 4  CN1CCN(c2ncc3nc(-c4cc(F)cc(F)c4)c(=O)n(C4CC4)c3n2)CC1   Potency  > 9.22 µM (inactive)
 5  O=c1c(-c2cc(F)cc(F)c2)nc2cnc(N3CCOCC3)nc2n1Cc1cccs1   Potency  > 9.22 µM (inactive)
 6           Cc1nc2cnc(N(C)C)nc2n(C2CC2)c1=O   Potency  > 9.22 µM (inactive)
 7              COc1ccccc1CNc1ncncc1-c1ccoc1   Potency    > 46 µM (inactive)
 8    COc1ccc(-n2c(=O)cnc3cnc(N(C)C)nc32)cc1   Potency  > 9.22 µM (inactive)
 9     Cc1cccc(CNc2ncnc3ccc(-c4ccoc4)cc23)c1   Potency    > 46 µM (inactive)
10  CCNc1ncc2nc(-c3cc(F)cc(F)c3)c(=O)n(C[C@H]3CCCO3)c2n1   Potency  > 9.22 µM (inactive)
11        O=c1cnc2cnc(N3CCNCC3)nc2n1Cc1cccs1   Potency  > 9.22 µM (inactive)
12                 NC(=NCCC[C@H](N)C(=O)O)NO   Potency    > 46 µM (inactive)

---

# assay-target: 3',5'-cyclic-AMP phosphodiesterase 4B (Homo sapiens)
# assay-name: qHTS Assay for Inhibitors of PDE-IV (AID 607); also: % of control where 0% means no effect
# experimental-setup: HEK293 ACTOne CNG channel cells, membrane potential fluorescence; series mostly up to 22.9 µM
Records with an inconclusive call do not appear. The source made the active and inactive calls. Calls follow the shape of the dose curve; as a rule, active = well fitted activation curve with a large enough effect in the main read-out, with a control signal flat (not every such curve was filed as active); inconclusive = small, poorly fitted or top-dose-only effect, or effect the other way, or a change in a side signal; inactive = flat fitted curve, though single readings scatter.
endpoint: outcome

> print(dat)
                               sample.smiles  recorded.value
 1  COc1ccc(-n2c(=O)c(-c3ccc(Cl)cc3)nc3cnc(N4CCNCC4)nc32)cc1        inactive
 2  COc1ccc(-c2nc3cnc(Nc4ccccc4)nc3n(Cc3cccs3)c2=O)cc1        inactive
 3  CC(C)CN1CC[C@@]2(CCCN(C(=O)c3cnccn3)C2)C1        inactive
 4         COc1cccc(-c2cncnc2N(C)Cc2ccco2)c1        inactive
 5         NCCCCNS(=O)(=O)c1cccc2c(Cl)cccc12        inactive
 6       c1cncc(-c2nc(N3CCNCC3)c3ccccc3n2)c1        inactive
 7           O=c1cnc2cnc(N3CCOCC3)nc2n1C1CC1        inactive
 8  O=C(c1cccc(F)c1)N1CCC2(CC1)CN(c1cccc(-c3ccccc3)c1)C2        inactive
 9     COCCn1c(=O)c(-c2ccccc2)nc2cnc(OC)nc21        inactive
10       COc1cccc(-c2cc(N(C)Cc3ccco3)ncn2)c1        inactive
11  COCCn1c(=O)c(-c2cccc(C#N)c2)nc2cnc(N(C)C)nc21        inactive

---

# assay-name: Primary qHTS for inhibitors of nuclear receptor binding SET domain protein 2 (NSD2) in an isogenic RCH-ACV NSD2 p.E1099K mutant (9B) (AID 1645876); also: nearly all actives have a fitted effect of over 70% in size
# experimental-setup: RCH-ACV NSD2 E1099K (9B) viability, CellTiter-Glo, 72 h; series mostly up to 44.9 µM
Inconclusive results are not listed. Active and inactive are the calls of the source. The call rests on the fitted dose curve; in most records, active means well fitted inhibition curve with a large enough effect; inconclusive means small, poorly fitted or top-dose-only effect; inactive means flat fitted curve, though single readings scatter.
Outcome codes: active, inactive

> print(dat)
                                   compound  class.name
1  Cc1ccc(-n2c(C)cc(-c3nnc4n3CCCCC4)c2C)cc1      active
2  CC(C)(O)CS(=O)(=O)Nc1ccc2c(c1)CCN(C(=O)COc1cccnc1)C2      active
3  CCOc1cc(/C=C2/C(=O)N(c3ccccc3)N=C2C)cc(Cl)c1OCC(=O)OC    inactive
4  CC(=O)N1c2ccc(-c3ccc(C(=O)O)cc3)cc2[C@H](Nc2ccc(Cl)cc2)C[C@@H]1C      active
5  COc1ccc2c(c1)C(c1ccc(F)cc1)=C(CN1CCCC1)CO2    inactive
6  O=C(/C=C/C#Cc1cccc(NS(=O)(=O)c2ccccc2)c1)NO      active
7  Nc1nc(F)nc2c1ncn2C1OC(COP(=O)(O)O)C(O)C1O (centres undefined)      active
8  Cc1[nH]c(/C=C2\C(=O)Nc3ccc(S(=O)(=O)Cc4c(Cl)cccc4Cl)cc32)c(C)c1C(=O)N1CCC[C@@H]1CN1CCCC1      active
9  Cc1ccc(S(=O)(=O)Nc2cc(C(F)(F)F)ccc2C(=O)Nc2nc(-c3ccccc3)cs2)cc1      active

---

# activity change, negative = inhibition per record follows
# assay-name: NFAT Signaling Pathway (AID 444);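 also: carbachol stimulus at about its EC50 of 1 µM final; % is scaled to controls: 0 for no effect and ±100 for the full control effect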
# experimental-setup: Jurkat NFAT-bla M1, carbachol, beta-lactamase ratio, 5 h; at 7.69 µM (top of the series) unless noted
Records with an inconclusive call do not appear.
endpoint: activity change, negative = inhibition (%)

> print(dat)
                               sample.smiles                                endpoint  units.label  recorded.value
 1  Cn1cc(-c2nc3cnc(N4CCNCC4)nc3n(C)c2=O)c2ccccc21  activity change, negative = inhibition            %            6.17
 2  O=C(c1cccc(F)c1)N1CCC2(CC1)CCN(c1ccccc1)CC2  activity change, negative = inhibition            %           -2.46
 3  CN(C)Cc1ccccc1-c1nc(NCc2cccs2)c2ccccc2n1  activity change, negative = inhibition            %           -24.9
 4         CN1CCCC2(CCN(C(=O)c3cccn3C)CC2)C1  activity change, negative = inhibition            %           -4.14
 5    COC(=O)N1CCC2(CC1)CN(C(=O)Nc1ccccc1)C2  activity change, negative = inhibition            %            8.68
 6           COCCNc1ncnc2ccc(-c3ccccc3C)cc12  activity change, negative = inhibition            %            10.4
 7       CS(=O)(=O)N1CCC2(CC1)CN(Cc1nccs1)C2  activity change, negative = inhibition            %            11.5
 8  COc1ccc(NC(=O)N2CC3(CCN(C(C)=O)CC3)C2)cc1  activity change, negative = inhibition            %          -0.444
 9  COCC(=O)N1CCC[C@@]2(CCN(Cc3ccc(C#N)cc3)C2)C1  activity change, negative = inhibition            %            4.93
10    Cc1nc2cnc(N(C)C)nc2n(C[C@H]2CCCO2)c1=O  activity change, negative = inhibition            %           -4.67
11  COCCn1c(=O)c(-c2cn(C)c3ccccc23)nc2cnc(N3CCOCC3)nc21  activity change, negative = inhibition            %            5.44

---

# assay-name: Primary qHTS for inhibitors of nuclear receptor binding SET domain protein 2 (NSD2) in an isogenic RCH-ACV NSD2 p.E1099K mutant (9B) (AID 1645876); also: nearly all actives have a fitted effect of over 70% in size
# experimental-setup: RCH-ACV (leukaemia line) NSD2 E1099K (9B) viability, CellTiter-Glo, 72 h; series mostly up to 44.9 µM
Results filed as inconclusive are left out. Active and inactive are the calls of the source. Calls come from the whole dose curve; as a rule, active = well fitted inhibition curve with a large enough effect; inconclusive = small, poorly fitted or top-dose-only effect; inactive = flat fitted curve, though single readings scatter.
Outcome codes: active, inactive

> print(dat)
                              sample.smiles  class.name
1  COC(=O)c1ccc([C@H]2c3[nH]c4ccccc4c3C[C@H](C(=O)OC)N2C(=O)CCl)cc1      active
2  Cc1cc(C)c(S(=O)(=O)N(CCc2cccc(Br)c2)Cc2ccc(-c3cccc(S(C)(=O)=O)c3)cc2)c(C)c1    inactive
3  COc1ccc(S(=O)(=O)N[C@@H](CNc2nc(C)nc(N3CCC(c4ccc5c(n4)NCCC5)CC3)c2C)C(=O)O)cc1    inactive
4         CC(=O)c1cc2c(o1)C(=O)c1ccccc1C2=O      active

---

# assay-name: qHTS for Antimalaria activity screened against the NCATS CANVASS Library (AID 1347380); also: nearly all actives have a fitted effect of over 40% in size
# experimental-setup: P. falciparum Dd2 growth, SYBR Green fluorescence, 72 h; series mostly up to 28.7 µM
# Excerpt: Natural products and their derivatives continue to be wellsprings of nascent therapeutic potential. […] To address this issue, the Canvass library of natural products was assembled (https://tripod.nih.gov/canvass), in collaboration with academic and industry researchers, for quantitative high-throughput screening (qHTS) across a diverse set of cell-based and biochemical assays. […]
Inconclusive results are not listed. Calls of active or inactive are those of the source. The call rests on the fitted dose curve; in most records, active means well fitted cell-killing curve with a large enough effect; inconclusive means small, poorly fitted or top-dose-only effect, or effect the other way; inactive means no such curve, though single readings can be large or run the other way.
Outcome codes: true (1) = active, false (0) = inactive

> print(dat)
                                   molecule  class.name
1  C/C(=C\[C@H](C)C(=O)/C=C/CC1CC(=O)NC(=O)C1)[C@@H]1OC(=O)CCCC/C=C/[C@H](O)[C@@H](O)[C@@H]1C   false (0)
2  C/C1=C/[C@@H](C)[C@H](O)C/C=C/CC/C=C/C(=O)O[C@@H]1[C@H](C)C(=O)CCCC1CC(=O)NC(=O)C1   false (0)
3  CO[C@H]1/C=C/CCCCC(=O)O[C@@H](/C(C)=C/[C@H](C)C(=O)C[C@H](O)CC2CC(=O)NC(=O)C2)[C@@H](C)C1    true (1)
4  CCC(=O)N[C@@H](C[C@H](C)C(Cl)(Cl)Cl)C(=O)N1C(=O)C=C(OC)[C@@H]1CC(C)C   false (0)
5  C=C(C)CC[C@H](Cc1c(O)cc(O)c2c1O[C@H](c1ccc(O)cc1)CC2=O)C(=C)C   false (0)
6  C=C[C@@]1(C)CC[C@@H]([C@H](C)C(=O)/C=C/C(C)(C)O)O1   false (0)
7  C/C(=C\[C@@H](C)CC/C=C/CC/C=C/C(=O)O)[C@@H](O)[C@H](C)C(=O)CCCC1CC(=O)NC(=O)C1   false (0)
8  COc1cc(C2C3=C(Cc4cc5c(cc42)OCO5)C(=O)OC3)cc(OC)c1OC (stereo not drawn)    true (1)
